B1: ZNF649 (parent)
chain: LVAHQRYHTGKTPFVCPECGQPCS

# Variants of: B1
# PROCEDURE_DETAILS: protein stability index of a GFP-peptide fusion (GPS, HEK-293T) (PSI 1-6); higher = more stable;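 note: lentivirally expressed fusions sorted by FACS into six bins by GFP to DsRed ratio, PSI derived from sequencing read proportions per bin multiplied by bin number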
# PROTOCOL_CONDITIONS: c terminus: a fixed tail appended
Lab note: compare protein stability index against 3. Equal or greater, write y. Smaller, write n.

Inquiry: Exam item: decide whether the reported protein stability index for A3R is at least 3.
Reply text: y

Inquiry: Determine whether measured protein stability index meets or exceeds 3 for Q5F
Reply text: n

Inquiry: Reported protein stability index reaches at least 3 for C19R ?
Reply text: n

Inquiry: Is the recorded value of protein stability index equal to or greater than 3 for this variant? V15D
Reply text: y

Inquiry: API: above_or_equal(metric=protein stability index, cutoff=3) for item G20R
Reply text: n

Inquiry: Does the variant Y7S have recorded protein stability index that is 3 or more?
Reply text: y

Inquiry: For this variant, is measured protein stability index 3 or higher? T12N
Reply text: y

Inquiry: Has T12V a recorded protein stability index greater than or equal to 3?
Reply text: y

Inquiry: Hi team, for S24L , is the recorded protein stability index at or above 3?
Reply text: n

Inquiry: # bool: protein stability index of S24E >= 3
Reply text: y

Inquiry: Has R6W a recorded protein stability index greater than or equal to 3?
Reply text: y

Inquiry: Could you please find out whether C16S has protein stability index that meets 3 or exceeds it?
Reply text: y

Inquiry: Exam item: decide whether the reported protein stability index for C16R is at least 3.
Reply text: n

Inquiry: Say whether R6C shows protein stability index of 3 or more.
Reply text: y

Inquiry: Check the entry Y7C : does protein stability index equal or exceed 3?
Reply text: n

Inquiry: Does Y7G have a reported protein stability index of at least 3?
Reply text: y

Inquiry: Does P13K have a reported protein stability index of at least 3?
Reply text: y

Inquiry: Could you please find out whether G10H has protein stability index that meets 3 or exceeds it?
Reply text: y

Inquiry: I'd appreciate it if you could say whether A3T has protein stability index at least equal to 3.
Reply text: y

Inquiry: Does the variant Q5C have recorded protein stability index that is 3 or more?
Reply text: n

Inquiry: Does A3C have a reported protein stability index of at least 3?
Reply text: y

Inquiry: Evaluate T12S : protein stability index at minimum 3?
Reply text: y

Inquiry: Item H4C with protein stability index of 3 or above?
Reply text: y

Inquiry: Determine whether measured protein stability index meets or exceeds 3 for P22E
Reply text: y

Inquiry: Does K11L have a reported protein stability index of at least 3?
Reply text: y

Inquiry: Does A3V have a reported protein stability index of at least 3?
Reply text: n

Inquiry: // inclusive: protein stability index at least 3? input: T9G
Reply text: y

Inquiry: In plain terms: is recorded protein stability index at least 3 for P17W ?
Reply text: n

Inquiry: Evaluate L1H : protein stability index at minimum 3?
Reply text: y

Inquiry: State whether the measured protein stability index reaches 3, counting equality as reaching it, for C23A
Reply text: y

Inquiry: Quick check, protein stability index >= 3? H8P
Reply text: y

Inquiry: Tell me whether protein stability index is at least 3 here: E18I
Reply text: n

Inquiry: Record H4D ; criterion: protein stability index no lower than 3. Met?
Reply text: y

Inquiry: Check this variant for protein stability index at or above 3: F14C
Reply text: y

Inquiry: Entry G10S : is its protein stability index no less than 3?
Reply text: n

Inquiry: Please tell me: is the variant F14N at or over 3 in terms of protein stability index?
Reply text: y

Inquiry: Quick check, protein stability index >= 3? F14T
Reply text: y

Just for reference, the supplement of paper PMC10567573 is where these values come from.
